experimental.details: in vitro
reported.conditions: human
Define the label as label 1 when CC50 is strictly less than 40 µM and as label 0 in all remaining cases.

The examples below pair each entry with its known result.
In: Dear reviewer, please state whether "Cc1nc2sccn2c1C(=O)N1CCN(CCn2cc(-c3ccc(C(C)(C)C)cc3)nn2)CC1" has CC50 strictly beneath 40 µM.
Out: label 0

In: What do you get for "Cc1nc2sccn2c1C(=O)N1CCN(CCn2cc(CSc3nc4ccccc4[nH]3)nn2)CC1" ?
Out: label 0

In: Proceed to "CCCCCCCCCc1cn(CCN2CCN(C(=O)c3c(C)nc4sccn34)CC2)nn1"
Out: label 0

In: Record: "Cc1nc2sc3ccccc3n2c1C(=O)N1CCN(Cc2cn(-c3ccc([N+](=O)[O-])cc3)nn2)CC1"
Out: label 0

In: How about this molecule: "Cc1nc2sc3ccccc3n2c1C(=O)N1CCN(CCn2cc(-c3ccc(C(C)(C)C)cc3)nn2)CC1"
Out: label 0

Next:
In: Find out if reported CC50 for "Cc1nc2sc3ccccc3n2c1C(=O)N1CCN(Cc2cn(-c3cccc([N+](=O)[O-])c3)nn2)CC1" is less than 40 µM
Out: label 0

In: Likewise for CC/C(=C(\c1ccccc1)c1ccc(OCCN(C)C)cc1)c1ccccc1 [Tamoxifen, reference compound] ?
Out: label 1

In: Could you do the same for "Cc1ccc(-n2cc(CN3CCN(C(=O)c4c(C)nc5sc6ccccc6n45)CC3)nn2)cc1C" , please?
Out: label 0

In: Record: "Cc1nc2sc3ccccc3n2c1C(=O)N1CCN(Cc2cn(-c3cccc(Cl)c3)nn2)CC1"
Out: label 1
